Overview of recorded ENDOHDL Test 1 for various molecules
biological target: murine SR-BI (Mus musculus); construct: expressed in transfected cells; host or cells: ldlA-7 (LDL receptor deficient Chinese hamster ovary cells); assay: Uptake of DiI from DiI-HDL by ldlA[mSR-BI] cells (high throughput screen and concentration dependence); assay type: cell-based; details: Test 1
Sequence (Q61009 whole entry): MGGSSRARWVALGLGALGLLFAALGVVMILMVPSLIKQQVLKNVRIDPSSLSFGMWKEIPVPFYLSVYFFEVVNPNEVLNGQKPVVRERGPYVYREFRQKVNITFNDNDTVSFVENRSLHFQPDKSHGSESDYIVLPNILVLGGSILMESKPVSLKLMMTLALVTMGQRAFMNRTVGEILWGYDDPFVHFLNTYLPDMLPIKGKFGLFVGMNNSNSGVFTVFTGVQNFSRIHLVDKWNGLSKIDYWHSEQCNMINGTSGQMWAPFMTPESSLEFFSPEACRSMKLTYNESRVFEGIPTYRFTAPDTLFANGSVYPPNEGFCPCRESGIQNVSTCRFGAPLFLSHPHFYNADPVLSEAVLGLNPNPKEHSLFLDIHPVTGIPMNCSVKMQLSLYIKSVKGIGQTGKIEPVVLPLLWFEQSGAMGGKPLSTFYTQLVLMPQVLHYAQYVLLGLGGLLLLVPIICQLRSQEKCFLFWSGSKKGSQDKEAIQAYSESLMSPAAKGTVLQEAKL

{"molecule": "COc1cccc(/C=N/Nc2ccc([N+](=O)[O-])cc2)c1", "ENDOHDL Test 1": 0.64}
{"molecule": "CCn1c(C)c(-c2ccccc2)c2cc([N+](=O)[O-])ccc21", "ENDOHDL Test 1": 0.66}
{"molecule": "COc1ccc2nc(C(=O)[O-])sc2c1.[Na+]", "ENDOHDL Test 1": 1.24}
{"molecule": "COc1ccc(/C(C)=N/NC(=O)C2CC2(c2ccccc2)c2ccccc2)c(OC)c1 (stereo not drawn)", "ENDOHDL Test 1": 0.66}
{"molecule": "CC1(C)C(C(=O)OCC(=O)c2ccc([N+](=O)[O-])cc2)CCC1C(=O)OCC(=O)c1ccc([N+](=O)[O-])cc1 (stereo not drawn)", "ENDOHDL Test 1": 0.57}
{"molecule": "COc1ccc([N+](=O)[O-])cc1NC(=S)NC(NC(=O)c1ccccc1Br)C(Cl)(Cl)Cl (stereo not drawn)", "ENDOHDL Test 1": 0.63}
{"molecule": "NC(/N=N/c1ccccc1)=N\\Nc1ccccc1", "ENDOHDL Test 1": 0.55}
{"molecule": "Cl.c1ccc(CCNC2CCCc3c2[nH]c2ccc(C4CCCCC4)cc32)cc1 (stereo not drawn)", "ENDOHDL Test 1": 0.51}
{"molecule": "COC(=O)/C=C1/Nc2ccccc2OC1=O", "ENDOHDL Test 1": 1.22}
{"molecule": "O=C(NC(NC(=S)Nc1ccc(Cl)cc1Cl)C(Cl)(Cl)Cl)c1ccco1 (stereo not drawn)", "ENDOHDL Test 1": 0.6}
{"molecule": "O=C(NC(NC(=S)Nc1cc(C(F)(F)F)ccc1Cl)C(Cl)(Cl)Cl)c1ccco1 (stereo not drawn)", "ENDOHDL Test 1": 0.62}
{"molecule": "O=C(Oc1ccc2c(=O)c(Oc3ccccc3)coc2c1)C1CCCN1C(=O)OCc1ccccc1 (stereo not drawn)", "ENDOHDL Test 1": 1.28}
{"molecule": "CCCCC1(OC(=O)Nc2ccc(Cl)cc2)CCCCC1", "ENDOHDL Test 1": 0.63}
{"molecule": "CN(CC#CC(O)(c1ccccc1)c1ccccc1)C1CCCCC1", "ENDOHDL Test 1": 1.07}
{"molecule": "CN(N)c1nc(-c2ccccc2)cc(-c2ccccc2)n1", "ENDOHDL Test 1": 0.58}

* * *

molecular target: murine SR-BI (Mus musculus); construct: expressed in transfected cells; host or cells: ldlA-7 (LDL receptor deficient Chinese hamster ovary cells); test: Uptake of DiI from DiI-HDL by ldlA[mSR-BI] cells (high throughput screen and concentration dependence); assay type: cell-based; conditions: ldlA[mSR-BI] cells; inhibition; mean ± SD, n=3
Overview of recorded EC50 for various molecules

{"molecule": "C/C(=N\\NC(=O)c1ccccc1I)c1ccc(N)cc1", "EC50 (nM)": 7100}
{"molecule": "CCCCCCC1CCC/C1=N\\NC(N)=S (centres unmarked)", "EC50 (nM)": 60}
{"molecule": "COc1ccccc1NC(=O)Nc1ccc2ccccc2c1", "EC50 (nM)": 2000}
{"molecule": "c1ccc(-c2noc(-c3ccccc3)c3cccc2-3)cc1", "EC50 (nM)": 510}
{"molecule": "CCCCOCCC1CCC/C1=N\\NC(N)=S (centres unmarked)", "EC50 (nM)": 350}

Data origin: patent US20040171073A1
